biological target: T1, human LPAM-1-Fc (alpha4-Fc/beta7-Fc heterodimer) (human); experiment: ELISA, LPAM-1-Fc coated, 1 mM MnCl2; from EC50 values
T1 construct: Soluble heterodimer from CHO cells, Protein A purified
T1 sequence (chain, as listed by the source limits assumed, chain 1 of 2): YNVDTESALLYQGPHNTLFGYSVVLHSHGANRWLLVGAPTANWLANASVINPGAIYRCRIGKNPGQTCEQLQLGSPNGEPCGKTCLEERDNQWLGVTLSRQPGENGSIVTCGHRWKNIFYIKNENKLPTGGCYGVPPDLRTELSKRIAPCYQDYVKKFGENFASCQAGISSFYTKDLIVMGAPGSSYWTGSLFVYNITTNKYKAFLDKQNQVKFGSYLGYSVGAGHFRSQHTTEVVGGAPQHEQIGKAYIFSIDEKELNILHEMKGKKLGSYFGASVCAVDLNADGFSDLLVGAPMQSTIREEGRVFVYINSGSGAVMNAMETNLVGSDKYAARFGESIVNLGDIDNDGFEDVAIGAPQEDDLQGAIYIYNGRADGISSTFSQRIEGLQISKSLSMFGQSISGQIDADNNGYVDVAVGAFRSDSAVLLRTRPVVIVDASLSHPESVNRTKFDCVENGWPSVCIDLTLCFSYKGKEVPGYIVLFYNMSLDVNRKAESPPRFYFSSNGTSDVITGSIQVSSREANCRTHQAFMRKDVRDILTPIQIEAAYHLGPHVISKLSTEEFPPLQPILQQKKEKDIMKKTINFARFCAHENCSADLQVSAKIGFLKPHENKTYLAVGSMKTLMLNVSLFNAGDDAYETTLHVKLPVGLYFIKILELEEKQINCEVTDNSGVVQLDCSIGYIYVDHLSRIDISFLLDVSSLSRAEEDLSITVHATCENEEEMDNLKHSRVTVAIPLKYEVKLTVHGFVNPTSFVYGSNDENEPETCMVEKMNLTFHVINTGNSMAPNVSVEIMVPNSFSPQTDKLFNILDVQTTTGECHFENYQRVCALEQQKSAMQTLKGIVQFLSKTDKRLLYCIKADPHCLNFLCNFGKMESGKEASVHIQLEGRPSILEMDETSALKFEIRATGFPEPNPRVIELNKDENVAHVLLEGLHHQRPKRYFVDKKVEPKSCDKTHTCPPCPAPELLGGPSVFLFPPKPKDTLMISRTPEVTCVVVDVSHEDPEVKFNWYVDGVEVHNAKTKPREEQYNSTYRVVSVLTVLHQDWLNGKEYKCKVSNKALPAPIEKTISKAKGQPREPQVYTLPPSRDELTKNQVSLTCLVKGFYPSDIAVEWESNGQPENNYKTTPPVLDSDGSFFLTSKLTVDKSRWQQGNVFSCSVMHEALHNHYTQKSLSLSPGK
T1 sequence (chain, as listed by the source limits assumed, chain 2 of 2): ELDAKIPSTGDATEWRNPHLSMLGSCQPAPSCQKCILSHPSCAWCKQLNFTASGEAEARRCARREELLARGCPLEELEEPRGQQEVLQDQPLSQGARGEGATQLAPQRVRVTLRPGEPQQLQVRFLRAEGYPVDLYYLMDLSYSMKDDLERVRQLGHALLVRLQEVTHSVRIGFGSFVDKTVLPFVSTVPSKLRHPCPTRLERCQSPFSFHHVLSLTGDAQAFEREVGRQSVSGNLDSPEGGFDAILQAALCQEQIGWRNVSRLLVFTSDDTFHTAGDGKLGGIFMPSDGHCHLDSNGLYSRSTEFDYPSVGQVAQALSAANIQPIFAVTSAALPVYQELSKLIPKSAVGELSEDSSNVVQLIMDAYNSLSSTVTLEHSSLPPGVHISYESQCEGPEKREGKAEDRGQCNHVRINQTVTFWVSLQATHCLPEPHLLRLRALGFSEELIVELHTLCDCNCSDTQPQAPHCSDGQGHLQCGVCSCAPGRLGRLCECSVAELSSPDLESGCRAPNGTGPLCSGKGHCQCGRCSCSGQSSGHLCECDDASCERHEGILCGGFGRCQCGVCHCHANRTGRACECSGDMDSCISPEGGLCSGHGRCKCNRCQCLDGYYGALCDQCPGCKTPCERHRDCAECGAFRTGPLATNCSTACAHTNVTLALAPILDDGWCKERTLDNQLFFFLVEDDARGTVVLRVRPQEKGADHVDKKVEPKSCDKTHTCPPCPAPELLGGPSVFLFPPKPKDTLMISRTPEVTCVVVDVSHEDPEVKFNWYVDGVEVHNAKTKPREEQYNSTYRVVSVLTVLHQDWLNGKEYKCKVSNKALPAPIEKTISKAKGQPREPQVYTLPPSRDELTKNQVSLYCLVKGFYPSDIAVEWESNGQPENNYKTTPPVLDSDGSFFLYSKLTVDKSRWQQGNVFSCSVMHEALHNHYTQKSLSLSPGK
Parameter fold improvement in binding relative to Q38L-2D-VCAM-1: see the listing below.
Give the quantity in fold, number only.

Use the examples below as a reference point.
2D-VCAM-1 variant Clone 147 (ligand, not shown: His tag) FKIETTPESRYLAQIGDSVSLTCSTTGCESPSFYWRPLLDSPLNGKVTNEGTTSTLTMNPVSFGNEHSYLCTAACESRRLEKGIQVEIYSFPKDPEIHLSGPLEAGKPITVKCSVADVYPFDRLEIDLLKGDHLMKSQEFLEDADRKSLETKSLEVTFTPVIEDIGKVLVCRAKLHIDEMDSVPTVRQAVKELQVYISP
23
2D-VCAM-1 variant Clone 46 (ligand, also called Clone 046; not shown: His tag) FKIETTPESRYLAQIGDSVSLTCSTTGCESPFFSWRPQLDAPLNGKVTNEGTTSTLTMNPVSFGNEHSYLCTATCESRKLEKGIQVEIYSFPKDPEIHLSGPLEAGKPITVKCSVADVYPFDRLEIDLLKGDHLMKSQEFLEDADRKSLETKSLEVTFTPVIEDIGKVLVCRAKLHIDEMDSVPTVRQAVKELQVYISP
1
2D-VCAM-1 variant Clone 150 (ligand, not shown: His tag of the E. coli construct) FKIETTPESRYLAQIGDSVSLTCSTTGCESPLFFWRPQLDAPLNGKVTNEGTTSTLTMNPVSFGNEHSYLCTARCESRSLEKGIQVEIYSFPKDPEIHLSGPLEAGKPITVKCSVADVYPFDRLEIDLLKGDHLMKSQEFLEDADRKSLETKSLEVTFTPVIEDIGKVLVCRAKLHIDEMDSVPTVRQAVKELQVYISP
5
Q38L-2D-VCAM-1 (ligand, also called Q38L 2D-VCAM-1 polypeptide; not shown: His tag) FKIETTPESRYLAQIGDSVSLTCSTTGCESPFFSWRTLIDSPLNGKVTNEGTTSTLTMNPVSFGNEHSYLCTATCESRKLEKGIQVEIYSFPKDPEIHLSGPLEAGKPITVKCSVADVYPFDRLEIDLLKGDHLMKSQEFLEDADRKSLETKSLEVTFTPVIEDIGKVLVCRAKLHIDEMDSVPTVRQAVKELQVYISP
1
2D-VCAM-1 variant Clone 47 (ligand, also called Clone 047; not shown: His tag) FKIETTPESRYLAQIGDSVSLTCSTTGCESPFFSWRPLLDSPLNGKVTNEGTTSTLTMNPVSFGNEHSYLCTATCESRKLEKGIQVEIYSFPKDPEIHLSGPLEAGKPITVKCSVADVYPFDRLEIDLLKGDHLMKSQEFLEDADRKSLETKSLEVTFTPVIEDIGKVLVCRAKLHIDEMDSVPTVRQAVKELQVYISP
17
2D-VCAM-1 variant Clone 59 (ligand, also called Clone 059; not shown: His tag) FKIETTPESRYLAQIGDSVSLTCSTTGCESPFFSWRPLLDSPLNGKVTNEGTTSTLTMNPVSFGNEHSYLCTATCESRKLEKGIQVEIYSFPKDPEIHLSGPLEAGKPITVKCSVADVYPFDRLEIDLLKGDHLMKSQEFFEDAAWKSLETKSLEVTFTPVIEDIGKVLVCRAKLHIDEMDSVPTVRQAVKELQVYISP
80

Recorded result, 2D-VCAM-1 variant Clone 146 (ligand, not shown: small tags and cut ends) FKIETTPESRYLAQIGDSVSLTCSTTGCESPLFFWRPLLDSPLNGKVTNEGTTSTLTMNPVSFGNEHSYLCTARCESRSLEKGIQVEIYSFPKDPEIHLSGPLEAGKPITVKCSVADVYPFDRLEIDLLKGDHLMKSQEFLEDADRKSLETKSLEVTFTPVIEDIGKVLVCRAKLHIDEMDSVPTVRQAVKELQVYISP , fold improvement in binding relative to Q38L-2D-VCAM-1: 74
